Experiment: Metabolic stability in rat liver S9 fraction assessed as amount of parent compound remaining after 30 mins under aerobic conditions in presence of NADPH by reversed HPLC -UV detection analysis
Assay type: ADME, subcellular
Conditions: liver S9 fraction, read-out: Stability
Readout: remaining at 0.5 h (%)
// return numeric value only (unit: %, not printed)

Per the records, this compound ( CC(Oc1ccc(-c2ccccc2)cc1)C(=O)Cn1cnnn1 (stereo unspecified) ) has remaining at 0.5 h equal to 9

Per the records, this compound ( CC(C(=O)COc1ccc(-c2ccccc2)cc1)n1cnnn1 (stereo unspecified) ) has remaining at 0.5 h equal to 11

Per the records, this compound ( CC(C(=O)COc1ccc(-c2ccccc2)cc1)n1nnc2ccccc21 (stereo unspecified) ) has remaining at 0.5 h equal to 21

Per the records, this compound ( CC(Oc1ccc(-c2ccc(F)cc2)cc1)C(=O)Cn1nnc2ccccc21 (stereo unspecified) ) has remaining at 0.5 h equal to 29

Per the records, this compound ( CCC(Oc1ccc(-c2ccccc2)cc1)C(=O)Cn1nnc2ccccc21 (stereo unspecified) ) has remaining at 0.5 h equal to 51

Per the records, this compound ( CC(C(=O)COc1ccc(-c2ccccc2)cc1)n1ncnn1 (stereo unspecified) ) has remaining at 0.5 h equal to 0

Per the records, this compound ( `O=C(COc1ccc(-c2ccccc2)cc1)Cn1nnc2ccccc21` ) has remaining at 0.5 h equal to 0

Per the records, this compound ( `O=C(COc1ccc(-c2ccccc2)cc1)Cn1cnnn1` ) has remaining at 0.5 h equal to 0

Per the records, this compound ( CC(Oc1ccc(-c2ccccc2)cc1)C(=O)Cn1nnc2ccccc21 (stereo unspecified) ) has remaining at 0.5 h equal to 23

Per the records, this compound ( `O=C(COc1ccc(-c2ccccc2)cc1)Cn1ncnn1` ) has remaining at 0.5 h equal to 0

Per the records, this compound ( CC(Oc1ccc(-c2ccccc2)cc1)C(=O)Cn1ncnn1 (stereo unspecified) ) has remaining at 0.5 h equal to 0
